Just for reference, patent US20170007615A1 is where these values come from.

- Test system: E. coli (ATCC 25922)
- test_protocol: microbe, parasite or virus in culture
- condition_label: Escherichia coli, ATCC25922, read-out: MIC Compound alone, Table 1
The compounds listed here are annotated with their MIC.
readout_type: MIC

molecular_string	readout_type	recorded_measurement
CCNC(=O)Nc1nc2cc(-c3cccnc3)cc(-c3ncccc3N)c2s1	MIC	> 64 µg/mL
CCNC(=O)Nc1nc2cc(-c3cc(C)n(Cc4cccc(C)n4)c(=O)c3)cc(-c3ccccn3)c2s1	MIC	> 64 µg/mL
CCNC(=O)Nc1nc2cc(-c3cnc(N4CCC(C)(C(=O)O)CC4)nc3)cc(-c3ccccn3)c2s1	MIC	> 64 µg/mL
CCNC(=O)Nc1nc2cc(-c3cccnc3)ccc2s1	MIC	> 64 µg/mL
CCNC(=O)Nc1nc2cc(-c3cnc(NS(=O)(=O)C(C)(C)C)nc3)cc(N3CCN(CCN4CCCC4)CC3)c2s1	MIC	> 64 µg/mL
CCNC(=O)Nc1nc2cc(-c3cccnc3)cc(-c3ccccn3)c2s1	MIC	> 64 µg/mL
CCNC(=O)Nc1nc2cc(-c3cnc(NS(=O)(=O)c4ccccc4C(=O)O)nc3)cc(-c3ccccn3)c2s1	MIC	> 64 µg/mL
